# Tested on: MDCK
# Assay Remarks: Cytotoxicity against dog MDCK cells after 3.5 hrs by Alamar blue assay
# Assay type: cell-based
# Recorded Conditions: Canis lupus familiaris
Items are presented alongside their recorded IC50.

[
  {
    "Molecule": "CCCCCCCCCCCC(=O)NC(CCCCN)C(=O)NCCCCCCCCCCCC(=O)NC(CCCCN)C(=O)NCCCCCCCCCCCC(=O)NC(CCCCN)C(=O)O (centres undefined)",
    "System Name": "MDCK",
    "Unit Descriptor": "µM",
    "Qualifier Sign": "=",
    "IC50": 75
  },
  {
    "Molecule": "CCCCCCCCCCCC(=O)NC(CCCCN)C(=O)NCCCCCCCCCCCC(=O)NC(CCCCN)C(=O)O (centres undefined)",
    "System Name": "MDCK",
    "Unit Descriptor": "µM",
    "Qualifier Sign": ">",
    "IC50": 100
  },
  {
    "Molecule": "NCCCCCCCCCCCC(=O)NC(CCCCN)C(=O)NCCCCCCCCCCCC(=O)NC(CCCCN)C(=O)O (centres undefined)",
    "System Name": "MDCK",
    "Unit Descriptor": "µM",
    "Qualifier Sign": ">",
    "IC50": 150
  },
  {
    "Molecule": "NCCCCCCCCCCCC(=O)NC(CCCCN)C(=O)NCCCCCCCCCCCC(=O)NC(CCCCN)C(=O)NCCCCCCCCCCCC(=O)NC(CCCCN)C(=O)O (centres undefined)",
    "System Name": "MDCK",
    "Unit Descriptor": "µM",
    "Qualifier Sign": "=",
    "IC50": 91
  }
]

---

# Assay Remarks: Toxicity against human erythrocytes assessed as hemolysis at 100 uM after 1 hr
# Type: cell-based, Erythrocyte
# Recorded Conditions: read-out: Activity
Here the recorded hemolysis at 1 h, 100 µM is given for each entry.
Readout Type: hemolysis at 1 h, 100 µM

[
  {
    "Compound": "CCCCCCCCCCCC(=O)NC(CCCCN)C(=O)NCCCCCCCCCCCC(=O)NC(CCCCN)C(=O)NCCCCCCCCCCCC(=O)NC(CCCCN)C(=O)NCCCCCCCCCCCC(=O)NC(CCCCN)C(=O)O (centres undefined)",
    "Readout Type": "hemolysis at 1 h, 100 µM",
    "Meas Value": "26.1%"
  },
  {
    "Compound": "CCCCCCCCCCCC(=O)NC(CCCCN)C(=O)NCCCCCCCCCCCC(=O)NC(CCCCN)C(=O)O (centres undefined)",
    "Readout Type": "hemolysis at 1 h, 100 µM",
    "Meas Value": "4.9%"
  },
  {
    "Compound": "CCCCCCCCCCCC(=O)NC(CCCCN)C(=O)NCCCCCCCCCCCC(=O)NC(CCCCN)C(=O)NCCCCCCCCCCCC(=O)NC(CCCCN)C(=O)O (centres undefined)",
    "Readout Type": "hemolysis at 1 h, 100 µM",
    "Meas Value": "13.3%"
  },
  {
    "Compound": "NCCCCCCCCCCCC(=O)NC(CCCCN)C(=O)NCCCCCCCCCCCC(=O)NC(CCCCN)C(=O)O (centres undefined)",
    "Readout Type": "hemolysis at 1 h, 100 µM",
    "Meas Value": "0.14%"
  }
]

---

# System: MDCK
# Assay Remarks: Cytotoxicity against dog MDCK cells after 3.5 hrs by Alamar blue assay
# Type: cell-based
# Recorded Conditions: Canis lupus familiaris

[
  {
    "Molecule": "NCCCCCCCCCCCC(=O)NC(CCCCN)C(=O)NCCCCCCCCCCCC(=O)NC(CCCCN)C(=O)NCCCCCCCCCCCC(=O)NC(CCCCN)C(=O)NCCCCCCCCCCCC(=O)NC(CCCCN)C(=O)O (stereo not given)",
    "IC50": "> 75 µM"
  },
  {
    "Molecule": "NCCCCC(N)C(=O)NCCCCCCCCCCCC(=O)NC(CCCCN)C(=O)NCCCCCCCCCCCC(=O)NC(CCCCN)C(=O)NCCCCCCCCCCCC(=O)NC(CCCCN)C(=O)O (stereo not given)",
    "IC50": "> 270 µM"
  },
  {
    "Molecule": "NCCCCC(N)C(=O)NCCCCCCCCCCCC(=O)NC(CCCCN)C(=O)O (stereo not given)",
    "IC50": "> 800 µM"
  },
  {
    "Molecule": "CCCCCCCCCCCC(=O)NC(CCCCN)C(=O)NCCCCCCCCCCCC(=O)NC(CCCCN)C(=O)NCCCCCCCCCCCC(=O)NC(CCCCN)C(=O)NCCCCCCCCCCCC(=O)NC(CCCCN)C(=O)O (stereo not given)",
    "IC50": "37 µM"
  },
  {
    "Molecule": "NCCCCC(N)C(=O)NCCCCCCCCCCCC(=O)NC(CCCCN)C(=O)NCCCCCCCCCCCC(=O)NC(CCCCN)C(=O)O (stereo not given)",
    "IC50": "> 400 µM"
  }
]
